We begin with a simple list: items and their reported IC50.
target: C-X-C chemokine receptor type 4 (Homo sapiens, UniProt P61073); assay: Displacement of [125I]-CPCR4 from CXCR4 receptor in human Jurkat cells after 2 hrs by gamma counting
Sequence (P61073 whole entry): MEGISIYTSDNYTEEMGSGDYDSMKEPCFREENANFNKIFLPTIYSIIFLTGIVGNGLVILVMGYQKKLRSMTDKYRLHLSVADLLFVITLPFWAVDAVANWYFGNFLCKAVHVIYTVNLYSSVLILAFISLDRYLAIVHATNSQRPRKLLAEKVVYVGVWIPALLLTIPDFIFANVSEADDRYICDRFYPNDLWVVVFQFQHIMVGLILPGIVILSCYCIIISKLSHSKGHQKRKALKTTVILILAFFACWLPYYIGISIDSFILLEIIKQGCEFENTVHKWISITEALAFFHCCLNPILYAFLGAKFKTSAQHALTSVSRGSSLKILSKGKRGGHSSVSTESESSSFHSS
*1 amine or outer side, *2 acyl side, *3 side chain or, on linkers, in order; H or OH if unused. Where a SMILES comes first, the peptide text is derived from it. Bridges are numbered along the chain shown (N, C = ends). Roman numbers before positions name the chains, in order. [ ]: non-standard residue; d: D form. The star is where a group is joined. C16 diacid = O=C(O)CCCCCCCCCCCCCCC(=O)*; 2Nal = N[C@@H](Cc1ccc2ccccc2c1)C(=O)O; Adipoyl = O=C(CCCCC(=O)[*:2])[*:1]; dNMeOrn = CN[C@H](CCCN)C(=O)O
// units = nM; emit number, no label

Some entries whose results are on file:
Query :: I'd like to know its IC50. The compound in question is CN1C(=O)[C@@H](Cc2ccc(O)cc2)NC(=O)CNC(=O)[C@H](Cc2ccc3ccccc3c2)NC(=O)[C@H](CCCN=C(N)N)NC(=O)[C@H]1CCCNC(=O)CCCC(=O)NCCC[C@@H]1C(=O)N[C@@H](CCCNC(N)=O)C(=O)N[C@@H](Cc2ccc3ccccc3c2)C(=O)NCC(=O)N[C@H](Cc2ccc(O)cc2)C(=O)N1C
Result :: 19

Query :: I would be grateful if you could share the reported IC50 for CN1C(=O)[C@@H](Cc2ccc(O)cc2)NC(=O)CNC(=O)[C@H](Cc2ccc3ccccc3c2)NC(=O)[C@H](CCCNC(=N)N)NC(=O)[C@H]1CCCNC(=O)CCCCCCCCCCCCCCC(=O)NCCC[C@@H]1C(=O)N[C@@H](CCCNC(=N)N)C(=O)N[C@@H](Cc2ccc3ccccc3c2)C(=O)NCC(=O)N[C@H](Cc2ccc(O)cc2)C(=O)N1C (I: cyclo([2Nal]G[dY][dNMeOrn]R) / II: cyclo([2Nal]G[dY][dNMeOrn]R); linker I:4-II:4 via C16 diacid) .
Result :: 33

Query :: I have this compound here, CN1C(=O)[C@@H](Cc2ccc(O)cc2)NC(=O)CNC(=O)[C@H](Cc2ccc3ccccc3c2)NC(=O)[C@H](CCCN=C(N)N)NC(=O)[C@H]1CCCNC(=O)CNC(=O)CC(CC(=O)NCC(=O)NCCC[C@@H]1C(=O)N[C@@H](CCCN=C(N)N)C(=O)N[C@@H](Cc2ccc3ccccc3c2)C(=O)NCC(=O)N[C@H](Cc2ccc(O)cc2)C(=O)N1C)NC(=O)CCCCCNC(=O)CN1CCN(CC(=O)O)CCN(CC(=O)O)CCN(CC(=O)O)CC1 , and I need its recorded IC50.
Result :: 17

Query :: Which value of IC50 has been reported for CN1C(=O)[C@@H](Cc2ccc(O)cc2)NC(=O)CNC(=O)[C@H](Cc2ccc3ccccc3c2)NC(=O)[C@H](CCCN=C(N)N)NC(=O)[C@H]1CCCNC(=O)CNC(=O)CC(=O)NCC(=O)NCCC[C@@H]1C(=O)N[C@@H](CCCN=C(N)N)C(=O)N[C@@H](Cc2ccc3ccccc3c2)C(=O)NCC(=O)N[C@H](Cc2ccc(O)cc2)C(=O)N1C in the records?
Result :: 8

Turning now to a further record.
Query :: Fill in: IC50 of CN1C(=O)[C@@H](Cc2ccc(O)cc2)NC(=O)CNC(=O)[C@H](Cc2ccc3ccccc3c2)NC(=O)[C@H](CCCN=C(N)N)NC(=O)[C@H]1CCCNC(=O)CCCCC(=O)NCCC[C@@H]1C(=O)N[C@@H](CCCN=C(N)N)C(=O)N[C@@H](Cc2ccc3ccccc3c2)C(=O)NCC(=O)N[C@H](Cc2ccc(O)cc2)C(=O)N1C (I: cyclo([2Nal]G[dY][dNMeOrn]R) / II: cyclo([2Nal]G[dY][dNMeOrn]R); linker I:4-II:4 via Adipoyl) is ___
Result :: 4

Values were extracted from ChEMBL document CHEMBL1949612.
